Would you mind telling me the reported activity change, negative = inhibition of each entry?
experiment: NFAT Signaling Pathway (AID 444); settings: Jurkat NFAT-bla M1, carbachol, beta-lactamase ratio, 5 h; at 38 µM (top of the series);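 also: carbachol stimulus at about its EC50 of 1 µM final; % is scaled to controls: 0 for no effect and ±100 for the full control effect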
Inconclusive results are not listed. Active and inactive are the calls of the source. Calls follow the shape of the dose curve; as a rule, active = well fitted curve in either direction with a large enough effect (not every such curve was filed as active); inconclusive = small, poorly fitted or top-dose-only effect, or another doubt; inactive = flat fitted curve, though single readings scatter.

Use these answered entries as a reference point.
>>> experimental_result("Clc1cccc(Cl)c1NC1=NCCN1")
"-5.97% (inactive)"
>>> experimental_result("NS(=O)(=O)c1cc2c(cc1Cl)NC=NS2(=O)=O")
"8.02% (inactive)"
>>> experimental_result("NNCCc1ccccc1")
"-17.1% (inactive)"
>>> experimental_result("Nc1ccc(S(=O)(=O)Nc2ccnn2-c2ccccc2)cc1")
"1.19% (inactive)"
>>> experimental_result("Cn1cnc([N+](=O)[O-])c1Sc1ncnc2nc[nH]c12")
"19.1% (inactive)"

Hey, can you go through the list below and give me activity change, negative = inhibition for every item?
1. CNC[C@H](O)c1cccc(O)c1
2. Cc1oncc1C(=O)Nc1ccc(C(F)(F)F)cc1
3. O=NN(CCCl)C(=O)NCCCl
4. Cc1cn[nH]c1

Data returned:
1. -0.528% (inactive)
2. -5.42% (inactive)
3. -7.61% (inactive)
4. -5.73% (inactive)

# batch: return activity change, negative = inhibition for each of the 2 molecules below
1. CCOC(=O)C1=C[C@@]2(CC)CCCN3CCc4c(n1c1ccccc41)[C@H]32
2. CC(=O)Oc1ccccc1C(=O)O

Data returned:
1. 0.129% (inactive)
2. 2.25% (inactive)

For every record below, what is its activity change, negative = inhibition?
1. NC(N)=NC(=O)c1nc(Cl)c(N)nc1N
2. Cc1ccc(N(CC2=NCCN2)c2cccc(O)c2)cc1
3. CCCC(CCC)C(=O)O

Data returned:
1. -2.5% (inactive)
2. -12.9% (inactive)
3. 4.56% (inactive)

* * *

experiment: Quantitative High-Throughput drug screen in 47 multiple myeloma cell lines against the NCATS MIPE library collection: OPM2_DSMZ cell viability assay (AID 1919872); details: OPM2 myeloma viability, CellTiter-Glo ATP luminescence, 48 h; series mostly up to 45.8 µM; also: nearly all actives have a fitted effect of over 30% in size
Inconclusive results are not listed. The source made the active and inactive calls. The call rests on the fitted dose curve; in most records, active means well fitted cell-killing curve with a large enough effect; inconclusive means small, poorly fitted or top-dose-only effect, or effect the other way; inactive means no such curve, though single readings can be large or run the other way.
Form entry, call: pick from active, inactive

>>> class_label("NCCc1ccc(O)c(O)c1")
"active"
>>> class_label("Cc1cccc(-c2nn(C(=S)Nc3ccccc3)cc2-c2ccnc3ccccc23)n1")
"inactive"

Data request: Hi, sorry to bother you, what did the test record for CCCCNc1cc(C(=O)O)cc(S(N)(=O)=O)c1Oc1ccccc1 ?
Data returned: inactive

* * *

assay: Drug repurposing screens with cells derived from glioblastoma tumor samples (AID 1345199); settings: GBM patient neurospheres viability, ATP luminescence, 48 h; at 45.9 µM (top of the series); tumour line D; also: % is scaled to controls: 0 for no effect and ±100 for the full control effect; nearly all actives have a fitted effect of over 40% in size
Results filed as inconclusive are left out.
Please provide measured activity, negative = cell killing for the entries that follow.
Give bare numbers, in %.

>>> experimental_result("CCCC(CCC)C(=O)O")
-10.3
>>> experimental_result("CCc1ccc(CCOc2ccc(CC3SC(=O)NC3=O)cc2)nc1 (stereo not drawn)")
-17.6
>>> experimental_result("CC(C[N+](C)(C)C)OC(N)=O (stereo not drawn)")
5.66

Hi! Can you tell me activity, negative = cell killing for each of these compounds?
1. CCCc1nn(C)c2c(=O)[nH]c(-c3cc(S(=O)(=O)N4CCN(C)CC4)ccc3OCC)nc12
2. Cc1[nH]c(=O)c(C#N)cc1-c1ccncc1
3. N[C@@H]1CONC1=O

Data returned:
1: -23.3; 2: 4.86; 3: 4.98

Please give activity, negative = cell killing for each item listed below.
1. CC(=O)Oc1ccccc1C(=O)O
2. CC(c1cc2ccccc2s1)N(O)C(N)=O (stereo not drawn)
3. Cc1cn[nH]c1
4. NCCc1ccc(O)c(O)c1
5. NC(N)=NC(=O)c1nc(Cl)c(N)nc1N
6. Clc1cccc(Cl)c1NC1=NCCN1
7. O=C1CCc2cc(OCCCCc3nnnn3C3CCCCC3)ccc2N1
8. O=NN(CCCl)C(=O)NCCCl

Data returned:
1. -4.86
2. -20.5
3. -5.07
4. 1.17
5. -15.1
6. -7.27
7. -10.7
8. -22.2
